# System: 171881-019-R-J1-PDC tumor spheroid viability
# Experiment notes: Anticancer human tumor 171881-019-R-J1-PDC patient-derived invasive breast carcinoma cell line growth inhibition [PI3K]
# Run parameters: curve of first compound; second compound 10 µM; spheroids with HUVEC and MSC
# maps each entry to its IC50

Worked cases, IC50 given:
>  <Molecule>
C=CC(=O)N1CCN(c2nc(=O)n(-c3c(C)ccnc3C(C)C)c3nc(-c4c(O)cccc4F)c(F)cc23)C(C)C1 (stereo not drawn) + Cc1nc(NC(=O)N2CCCC2C(N)=O)sc1-c1ccnc(C(C)(C)C(F)(F)F)c1

>  <Tested on>
171881-019-R-J1-PDC tumor spheroid viability

>  <IC50>
< 31.6 nM

$$$$
>  <Molecule>
Cn1cnc2c(F)c(Nc3ccc(Br)cc3Cl)c(C(=O)NOCCO)cc21 + Cc1nc(NC(=O)N2CCCC2C(N)=O)sc1-c1ccnc(C(C)(C)C(F)(F)F)c1

>  <Tested on>
171881-019-R-J1-PDC tumor spheroid viability

>  <IC50>
< 9.49 nM

$$$$

Okay, now this molecule:
In: Find the recorded IC50 belonging to C#Cc1c(F)ccc2cc(O)cc(-c3ncc4c(N5CC6CCC(C5)N6)nc(OCC56CCCN5CC(F)C6)nc4c3F)c12 (stereo not drawn) + CC(Nc1ncnc2nc[nH]c12)c1cc2cccc(Cl)c2c(=O)n1-c1ccccc1 and report it.
Out: < 31.6 nM

###

We begin with a simple list: items and their reported pIC50.
# System: 171881-019-R-J1-PDC tumor spheroid viability
# Experiment notes: Anticancer human tumor 171881-019-R-J1-PDC cell line growth inhibition [PI3K];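 further: spheroids exposed to compound for 7 days before viability read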
# Run parameters: curve of first compound; second compound 0.00316 µM; spheroids with HUVEC and MSC
# reply with the number alone; pIC50 is -log10 of concentration in mol/L

>  <Compound>
Cn1cnc2c(F)c(Nc3ccc(Br)cc3Cl)c(C(=O)NOCCO)cc21 + CC(Nc1ccc2c(c1)OCCn1cc(N3C(=O)OCC3C(F)F)nc1-2)C(N)=O

>  <Meas value>
6.37

$$$$
>  <Compound>
CC1(C)CCC(CN2CCN(c3ccc(C(=O)NS(=O)(=O)c4ccc(NCC5CCOCC5)c([N+](=O)[O-])c4)c(Oc4cnc5[nH]ccc5c4)c3)CC2)=C(c2ccc(Cl)cc2)C1 + CC(Nc1ccc2c(c1)OCCn1cc(N3C(=O)OCC3C(F)F)nc1-2)C(N)=O

>  <Meas value>
5.43

$$$$

For the next question, use this compound.
In: Fill in the blank: the reported pIC50 of CCCS(=O)(=O)Nc1ccc(F)c(C(=O)c2c[nH]c3ncc(-c4ccc(Cl)cc4)cc23)c1F + COc1c(OCCCN2CCOCC2)ccc2c3n(c(=NC(=O)c4cnc(N)nc4)nc12)CCN3 is ____.
Out: 5.24

###

# System: 171881-019-R-J1-PDC tumor spheroid viability
# Experiment notes: Anticancer human tumor 171881-019-R-J1-PDC cell line growth inhibition [PI3K];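 further: spheroids exposed to compound for 7 days before viability read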;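 on viability, T/C: 100% = DMSO vehicle-treated spheroids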
# Run parameters: second compound 0.01 µM; first compound 1 µM; stronger effect = lower value; spheroids with HUVEC and MSC
Items are presented alongside their recorded viability, T/C.
Could you give me the number in %? Just the number is fine.

Answered cases to consult:
>  <Compound>
Cn1ncc(Cl)c1-c1cc(C(=O)NC(CN)Cc2cccc(F)c2)sc1Cl (stereo not given) + COc1c(OCCCN2CCOCC2)ccc2c3n(c(=NC(=O)c4cnc(N)nc4)nc12)CCN3

>  <viability, T/C, %>
16.4

$$$$
>  <Compound>
C=CC(=O)N1CCN(c2nc(=O)n(-c3c(C)ccnc3C(C)C)c3nc(-c4c(O)cccc4F)c(F)cc23)C(C)C1 (stereo not given) + CC(Nc1ccc2c(c1)OCCn1cc(N3C(=O)OCC3C(F)F)nc1-2)C(N)=O

>  <viability, T/C, %>
84.6

$$$$
>  <Compound>
Cn1nccc1Nc1nccc(-c2ccn(C(CO)c3ccc(Cl)c(F)c3)c(=O)c2)n1 (stereo not given) + CC(Nc1ccc2c(c1)OCCn1cc(N3C(=O)OCC3C(F)F)nc1-2)C(N)=O

>  <viability, T/C, %>
27.4

$$$$
>  <Compound>
CNC(=O)c1ccc(N2C(=S)N(c3ccc(C#N)c(C(F)(F)F)c3)C(=O)C2(C)C)cc1F + CC(Nc1ccc2c(c1)OCCn1cc(N3C(=O)OCC3C(F)F)nc1-2)C(N)=O

>  <viability, T/C, %>
74.5

$$$$

In: Param item = CC1(C)CCC(CN2CCN(c3ccc(C(=O)NS(=O)(=O)c4ccc(NCC5CCOCC5)c([N+](=O)[O-])c4)c(Oc4cnc5[nH]ccc5c4)c3)CC2)=C(c2ccc(Cl)cc2)C1 + CC(Nc1ccc2c(c1)OCCn1cc(N3C(=O)OCC3C(F)F)nc1-2)C(N)=O ; retrieve measured viability, T/C.
Out: 72.5

###

# Tested on: 171881-019-R-J1-PDC tumor spheroid viability
# Experiment notes: Anticancer human tumor 171881-019-R-J1-PDC cell line growth inhibition [PI3K];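 further: spheroids exposed to compound for 7 days before viability read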;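 on viability, T/C: 100% = DMSO vehicle-treated spheroids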
# Run parameters: second compound 1 µM; first compound 0.0316 µM; stronger effect = lower value; spheroids with HUVEC and MSC
# From the text: Combinatorial screen of targeted agents with the PI3K inhibitors inavolisib, alpelisib, duvelisib, and copanlisib in multi-cell type tumor spheroids A high-throughput screen of multi-cell type tumor spheroids was designed to identify active combinations of targeted small molecules and PI3K pathway inhibitors. […] Compounds. […] If the clinical Cmax for an agent had not been determined, the highest concentration tested was 10 microM. […]
// reported viability, T/C per item
Entry rule: numbers only, all in %.

>  <Compound>
CNC(=O)c1ccc(N2C(=S)N(c3ccc(C#N)c(C(F)(F)F)c3)C(=O)C2(C)C)cc1F + CC(Nc1ncnc2nc[nH]c12)c1cc2cccc(Cl)c2c(=O)n1-c1ccccc1

>  <Reported endpoint>
viability, T/C

>  <Meas value>
89.9

$$$$

In: Which viability, T/C value is on record for Cn1ncc(Cl)c1-c1cc(C(=O)NC(CN)Cc2cccc(F)c2)sc1Cl (configuration not stated) + CC(Nc1ncnc2nc[nH]c12)c1cc2cccc(Cl)c2c(=O)n1-c1ccccc1 ?
Out: 72.2

In: Quick one: viability, T/C of CCCS(=O)(=O)Nc1ccc(F)c(C(=O)c2c[nH]c3ncc(-c4ccc(Cl)cc4)cc23)c1F + CC(Nc1ncnc2nc[nH]c12)c1cc2cccc(Cl)c2c(=O)n1-c1ccccc1 ?
Out: 95.1

In: Entry under review: Cn1ncnc1[C@H]1c2n[nH]c(=O)c3cc(F)cc(c23)N[C@@H]1c1ccc(F)cc1 + CC(Nc1ncnc2nc[nH]c12)c1cc2cccc(Cl)c2c(=O)n1-c1ccccc1 . Reported viability, T/C?
Out: 97.1

In: So what does the record say about viability, T/C for CC(=O)c1c(C)c2cnc(Nc3ccc(N4CCNCC4)cn3)nc2n(C2CCCC2)c1=O + Cc1nc(NC(=O)N2CCCC2C(N)=O)sc1-c1ccnc(C(C)(C)C(F)(F)F)c1 ?
Out: 43.8

In: May I ask what viability, T/C has been recorded for CC(C)NCC(C(=O)N1CCN(c2ncnc3c2C(C)CC3O)CC1)c1ccc(Cl)cc1 (configuration not stated) + COc1c(OCCCN2CCOCC2)ccc2c3n(c(=NC(=O)c4cnc(N)nc4)nc12)CCN3 ?
Out: 0.99

In: Which viability, T/C value is on record for C=CC(=O)N1CCN(c2nc(=O)n(-c3c(C)ccnc3C(C)C)c3nc(-c4c(O)cccc4F)c(F)cc23)C(C)C1 (configuration not stated) + CC(Nc1ncnc2nc[nH]c12)c1cc2cccc(Cl)c2c(=O)n1-c1ccccc1 ?
Out: 101

###

# System: 171881-019-R-J1-PDC tumor spheroid viability
# Experiment notes: Anticancer human tumor 171881-019-R-J1-PDC cell line growth inhibition [PI3K];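 further: spheroids exposed to compound for 7 days before viability read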
# Run parameters: curve of first compound; second compound 1 µM; spheroids with HUVEC and MSC
pIC50: −log10 of the molar value.
Reported endpoint: pIC50

>  <Molecule>
CCN1CCN(Cc2ccc(Nc3ncc(F)c(-c4cc(F)c5nc(C)n(C(C)C)c5c4)n3)nc2)CC1 + CC(Nc1ncnc2nc[nH]c12)c1cc2cccc(Cl)c2c(=O)n1-c1ccccc1

>  <Tested on>
171881-019-R-J1-PDC tumor spheroid viability

>  <Meas value>
< 6.00

$$$$

In: Look up pIC50: CC(C)n1nc(-c2ccc3oc(N)nc3c2)c2c(N)ncnc21 + Cc1nc(NC(=O)N2CCCC2C(N)=O)sc1-c1ccnc(C(C)(C)C(F)(F)F)c1
Out: > 9.50

In: # query: pIC50 of entry CCCS(=O)(=O)Nc1ccc(F)c(C(=O)c2c[nH]c3ncc(-c4ccc(Cl)cc4)cc23)c1F + CC(Nc1ccc2c(c1)OCCn1cc(N3C(=O)OCC3C(F)F)nc1-2)C(N)=O
Out: > 7.50

In: Recorded pIC50 for CNC(=O)c1ccc(N2C(=S)N(c3ccc(C#N)c(C(F)(F)F)c3)C(=O)C2(C)C)cc1F + CC(Nc1ccc2c(c1)OCCn1cc(N3C(=O)OCC3C(F)F)nc1-2)C(N)=O , please?
Out: > 7.50
